Data provenance is patent US6627651B1.

- assayed_target: human CCR5 (Homo sapiens, UniProt P51681)
- Construct: expressed in transfected cells
- Sequence (P51681 whole entry): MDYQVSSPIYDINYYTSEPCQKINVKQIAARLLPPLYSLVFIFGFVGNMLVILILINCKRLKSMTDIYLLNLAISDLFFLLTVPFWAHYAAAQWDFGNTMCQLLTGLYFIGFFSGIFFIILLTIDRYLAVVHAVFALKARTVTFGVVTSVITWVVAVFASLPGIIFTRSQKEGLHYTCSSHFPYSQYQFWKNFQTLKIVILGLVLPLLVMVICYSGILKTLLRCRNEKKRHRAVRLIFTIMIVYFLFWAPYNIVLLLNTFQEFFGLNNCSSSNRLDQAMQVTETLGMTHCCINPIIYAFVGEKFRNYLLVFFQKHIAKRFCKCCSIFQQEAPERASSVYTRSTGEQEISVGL
- experimental_protocol: CCR5-binding inhibition: [125I]-RANTES binding to CHO/CCR5 cells
- run_conditions: test compound 1 μM; ligand [125I]-RANTES 100 pM; CHO/CCR5 strains; room temperature, 30 minutes
experimental_readout: Inhibition of binding (%)
Give your result in % as a bare value.

Looking for the measured Inhibition of binding (%) of CCCOc1ccc(COc2ccc3c(c2)C=C(C(=O)Nc2ccc(CN(C)C4CCOCC4)cc2)CCS3(=O)=O)cc1 , can you help?
89

Looking for the measured Inhibition of binding (%) of CCCOc1ccc(CCOc2ccc3c(c2)C=C(C(=O)Nc2ccc(CN(C)C4CCOCC4)cc2)CCS3(=O)=O)cc1 , can you help?
86

Looking for the measured Inhibition of binding (%) of CCCOc1cccc(COc2ccc3c(c2)C=C(C(=O)Nc2ccc(CN(C)C4CCOCC4)cc2)CCS3(=O)=O)c1 , can you help?
94

Looking for the measured Inhibition of binding (%) of Cc1ccc(-c2ccc3c(c2)C=C(C(=O)Nc2ccc(CC4=NCCN4)cc2)CCO3)cc1 , can you help?
76
